Give measured pKd for each item. Keep answers brief.
Molecular target: ci2350 (Δ4-3-ketosteroid 5β-reductase)
Construct: recombinant in E. coli, Ni HisTrap purified (pET28a/kanamycin); mutants assayed in E. coli cells
Assay: isothermal titration calorimetry
Settings: 0.1 M sodium phosphate, 0.2 M NaCl, 20 mM BME, 0.5 mM CHAPS, pH 6.5, 25 °C; independent model, single site
Remember the convention: pKd equals -log10 of concentration in molar.

Given the compound C[C@]12CCC(=O)C=C1CC[C@@H]1[C@@H]2[C@@H](O)C[C@@]2(C)[C@H]1CC[C@]2(O)C(=O)CO [hydrocortisone] , what is its reported pKd?
6.18

Given the compound CC(=O)[C@H]1CC[C@H]2[C@@H]3CCC4=CC(=O)CC[C@]4(C)[C@H]3CC[C@]12C [progesterone] , what is its reported pKd?
6.36

Given the compound CC(=O)[C@H]1CC[C@H]2[C@@H]3C=CC4=CC(=O)CC[C@]4(C)[C@H]3CC[C@]12C [6-dehydroprogesterone] , what is its reported pKd?
6.23

Given the compound C[C@]12CCC(=O)C=C1CC[C@@H]1[C@@H]2C(=O)C[C@@]2(C)[C@H]1CC[C@]2(O)C(=O)CO [cortisone] , what is its reported pKd?
6.12

Origin of measurements: paper PMC12238238
